EXPERIMENT_NOTES: Metabolic stability evaluation in human liver microsomes
Type: in vitro ADME
APPLIED_CONDITIONS: pH 7.4; human liver microsomes 0.5 mg/mL, compound 1 μM; read-out: HLM T1/2
half-life at 1 μM listing for selected compounds.

COMPOUND	half-life at 1 μM [h]
[2H]C([2H])([2H])[C@H](NC(=O)OC)C([2H])([2H])Nc1nccc(-c2cn(C(C)C)nc2-c2cc(Cl)cc(NS(C)(=O)=O)c2F)n1 (single isomer, unassigned)	1.85
[2H]C([2H])([2H])OC(=O)N[C@@H](C)CNc1nccc(-c2cn(C([2H])(C([2H])([2H])[2H])C([2H])([2H])[2H])nc2-c2cc(Cl)cc(NS(C)(=O)=O)c2F)n1 (single isomer, unassigned)	4.75
COC(=O)N[C@@H](C)CNc1nccc(-c2cn(C(C)C)nc2-c2cc(Cl)cc(NS(C)(=O)=O)c2F)n1 [Encorafenib, reference compound]	1.33
[2H]C([2H])([2H])OC(=O)N[C@@H](C)CNc1nccc(-c2cn(C(C)C)nc2-c2cc(Cl)cc(NS(C)(=O)=O)c2F)n1 (single isomer, unassigned)	2.55
[2H]C([2H])([2H])C([2H])(n1cc(-c2ccnc(NC[C@H](C)NC(=O)OC)n2)c(-c2cc(Cl)cc(NS(C)(=O)=O)c2F)n1)C([2H])([2H])[2H] (single isomer, unassigned)	2.44

---

# half-life at 1 μM annotations
EXPERIMENT_NOTES: Metabolic stability evaluation in rat liver microsomes
Type: in vitro ADME, SD rat
APPLIED_CONDITIONS: SD, pH 7.4; rat liver microsomes 0.5 mg/mL, compound 1 μM; read-out: RLM T1/2
READOUT_LABEL: half-life at 1 μM (h)

COMPOUND	RESULT_VALUE
[2H]C([2H])([2H])OC(=O)N[C@@H](C)CNc1nccc(-c2cn(C(C)C)nc2-c2cc(Cl)cc(NS(C)(=O)=O)c2F)n1 (single isomer, unassigned)	1.38
[2H]C([2H])([2H])C([2H])(n1cc(-c2ccnc(NC[C@H](C)NC(=O)OC)n2)c(-c2cc(Cl)cc(NS(C)(=O)=O)c2F)n1)C([2H])([2H])[2H] (single isomer, unassigned)	1.95
[2H]C([2H])([2H])[C@H](NC(=O)OC)C([2H])([2H])Nc1nccc(-c2cn(C(C)C)nc2-c2cc(Cl)cc(NS(C)(=O)=O)c2F)n1 (single isomer, unassigned)	1.38
[2H]C([2H])([2H])OC(=O)N[C@@H](C)CNc1nccc(-c2cn(C([2H])(C([2H])([2H])[2H])C([2H])([2H])[2H])nc2-c2cc(Cl)cc(NS(C)(=O)=O)c2F)n1 (single isomer, unassigned)	2.04
COC(=O)N[C@@H](C)CNc1nccc(-c2cn(C(C)C)nc2-c2cc(Cl)cc(NS(C)(=O)=O)c2F)n1 [Encorafenib, reference compound]	1.33

---

EXPERIMENT_NOTES: Metabolic stability evaluation in rat liver microsomes
Assay type: in vitro ADME, SD rat
APPLIED_CONDITIONS: SD, pH 7.4; rat liver microsomes 0.5 mg/mL, compound 1 μM; read-out: RLM CL
Description: Microsome assay: human liver microsomes (HLM): 0.5 mg/mL, Xenotech; rat liver microsomes (RLM): 0.5 mg/mL, Xenotech; coenzyme (NADPH/NADH): 1 mM, Sigma Life Science; magnesium chloride: 5 mM, 100 mM phosphate buffer (pH 7.4). […] Incubation of the samples: The stock solutions of the respective compounds were respectively diluted to 0.25 mM with an aqueous solution containing 70% acetonitrile, and used as a working solution, ready for use. […]

COMPOUND	microsomal CLint at 1 μM [µL/min/mg]
COC(=O)N[C@@H](C)CNc1nccc(-c2cn(C(C)C)nc2-c2cc(Cl)cc(NS(C)(=O)=O)c2F)n1 [Encorafenib, reference compound]	17.4
[2H]C([2H])([2H])[C@H](NC(=O)OC)C([2H])([2H])Nc1nccc(-c2cn(C(C)C)nc2-c2cc(Cl)cc(NS(C)(=O)=O)c2F)n1 (single isomer, unassigned) [L-4-S]	16.7
[2H]C([2H])([2H])OC(=O)N[C@@H](C)CNc1nccc(-c2cn(C(C)C)nc2-c2cc(Cl)cc(NS(C)(=O)=O)c2F)n1 (single isomer, unassigned) [L-2]	16.8
[2H]C([2H])([2H])OC(=O)N[C@@H](C)CNc1nccc(-c2cn(C([2H])(C([2H])([2H])[2H])C([2H])([2H])[2H])nc2-c2cc(Cl)cc(NS(C)(=O)=O)c2F)n1 (single isomer, unassigned) [L-3]	11.3
[2H]C([2H])([2H])C([2H])(n1cc(-c2ccnc(NC[C@H](C)NC(=O)OC)n2)c(-c2cc(Cl)cc(NS(C)(=O)=O)c2F)n1)C([2H])([2H])[2H] (single isomer, unassigned) [L-1]	11.8
